# Test Description: Absorption and fluorescence photophysical characterization in organic solvents
# Type: physicochemical
# Condition Set: chloroform (CFM)
Recorded Endpoint: fluorescence quantum yield (ΦF)

Please review the entries below; each comes with its answer.
Compound	Reading
CC1(C)C(=CC2=C(N)C(=CC3=[N+](CCCc4ccccc4)c4ccccc4C3(C)C)C2=O)N(CCCc2ccccc2)c2ccccc21.[I-] [Dye 9]	0.08
CNC1=C(C=C2N(CCCc3ccccc3)c3ccccc3C2(C)C)C(=O)C1=CC1=[N+](CCCc2ccccc2)c2ccccc2C1(C)C.[I-] [Dye 11]	0.10

Dear colleague, please send me the reported fluorescence quantum yield (ΦF) for CC1(C)C(=CC2=C([O-])C(=CC3=[N+](CCCc4ccccc4)c4ccccc4C3(C)C)C2=O)N(CCCc2ccccc2)c2ccccc21 [Dye 5] when you can.
0.46

Report fluorescence quantum yield (ΦF) for CC1(C)C(=CC2=C(NCc3ccc4ccc5cccc6ccc3c4c56)C(=CC3=[N+](CCCc4ccccc4)c4ccccc4C3(C)C)C2=O)N(CCCc2ccccc2)c2ccccc21.[I-] [Dye 14]
0.06
